This section presents compounds with their documented Ki values.
# TARGET UNDER TEST: [11C]PBB3 binding sites (tau aggregates) in temporal cortex homogenates of an Alzheimer's disease patient (Homo sapiens)
# Sequence (P10636 623-695 limits assumed): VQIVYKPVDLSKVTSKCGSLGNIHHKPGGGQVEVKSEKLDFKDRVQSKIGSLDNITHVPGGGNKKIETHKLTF
# PROTOCOL: Fluorescence competitive binding assay in vitro ([11C]PBB3 displacement in Alzheimer's disease temporal cortex homogenates)
# CONDITION INFO: 5 nM [11C]PBB3, AD temporal cortex homogenate (100 μg tissue), 30 min, room temperature
EXPERIMENTAL READOUT: Ki (nM)

{"COMPOUND": "CNc1ccc(-c2ccc(-c3nc4ccc(NCC(O)CF)cc4s3)cc2)cn1 (stereo not shown)", "EXPERIMENTAL READOUT": "Ki", "RECORDED NUMBER": 5}
{"COMPOUND": "Nc1ccc2nc(-c3ccc(-c4ccc(NCCF)nc4)cc3)sc2c1", "EXPERIMENTAL READOUT": "Ki", "RECORDED NUMBER": 5}
{"COMPOUND": "CNc1ccc(-c2cnc(-c3cc4ccncc4[nH]3)cc2F)cn1", "EXPERIMENTAL READOUT": "Ki", "RECORDED NUMBER": 140}
{"COMPOUND": "Nc1ccc(-c2ccc(-c3cc4cnccc4[nH]3)cc2)cc1F", "EXPERIMENTAL READOUT": "Ki", "RECORDED NUMBER": 5}
{"COMPOUND": "Nc1cccc(-c2ccc(-c3cc4ccncc4[nH]3)cc2)c1", "EXPERIMENTAL READOUT": "Ki", "RECORDED NUMBER": 45}
{"COMPOUND": "CNc1ccc(-c2cc(F)c(-c3cc4ccncc4[nH]3)cn2)cn1", "EXPERIMENTAL READOUT": "Ki", "RECORDED NUMBER": 15}
{"COMPOUND": "CNc1ccc(-c2ccc(-c3cc4ccnc(O)c4[nH]3)cc2)cn1", "EXPERIMENTAL READOUT": "Ki", "RECORDED NUMBER": 25}
{"COMPOUND": "CNc1ccc(-c2ccc(-c3cn4cc(OCC(O)CF)ccc4n3)cc2)cn1 (stereo not shown)", "EXPERIMENTAL READOUT": "Ki", "RECORDED NUMBER": 20}
{"COMPOUND": "CNc1ccc(-c2ccc(-c3cc4cnccc4[nH]3)cc2)cn1", "EXPERIMENTAL READOUT": "Ki", "RECORDED NUMBER": 15}
{"COMPOUND": "CNc1ncc(-c2cc(F)c(-c3nc4ccc(N)cc4s3)cn2)cn1", "EXPERIMENTAL READOUT": "Ki", "RECORDED NUMBER": 5}
{"COMPOUND": "CNc1ccc(-c2ccc(-c3cn4cc(NCC(O)CF)ccc4n3)cc2)cn1 (stereo not shown)", "EXPERIMENTAL READOUT": "Ki", "RECORDED NUMBER": 45}
{"COMPOUND": "CNc1ccc(-c2ccc(-c3cc4ccncc4[nH]3)c(F)n2)cn1", "EXPERIMENTAL READOUT": "Ki", "RECORDED NUMBER": 5}
{"COMPOUND": "CNc1ccc(-c2ccc(-c3nc4ccc(NCC(O)CF)cc4s3)nc2)cn1 (stereo not shown)", "EXPERIMENTAL READOUT": "Ki", "RECORDED NUMBER": 7.5}
{"COMPOUND": "CNc1ccc(-c2ccc(-c3cc4ccncc4[nH]3)nc2F)cn1", "EXPERIMENTAL READOUT": "Ki", "RECORDED NUMBER": 15}
{"COMPOUND": "CN(C)c1ccc(-c2ccc(-c3cn4cc(OCC(O)CF)ccc4n3)cc2)cn1 (stereo not shown)", "EXPERIMENTAL READOUT": "Ki", "RECORDED NUMBER": 10}
{"COMPOUND": "CNc1ccc(-c2ccc(-c3cc4ccncc4[nH]3)cc2)c(F)n1", "EXPERIMENTAL READOUT": "Ki", "RECORDED NUMBER": 1}
{"COMPOUND": "COc1ccc2nc(-c3ccc(-c4ccc(N(C)C)nc4F)cc3)cn2c1", "EXPERIMENTAL READOUT": "Ki", "RECORDED NUMBER": 5}
{"COMPOUND": "CN(C)c1ccc(-c2ccc(-c3cc4ccn(CC(O)CF)cc-4n3)cc2)cn1 (stereo not shown)", "EXPERIMENTAL READOUT": "Ki", "RECORDED NUMBER": 10}
{"COMPOUND": "CNc1ccc(-c2ccc(-c3cc4cc(F)ncc4[nH]3)cc2)cn1", "EXPERIMENTAL READOUT": "Ki", "RECORDED NUMBER": 2}

Attribution: patent US12116364B2
